# Subject Of Test: UniProtKB Q9NYK1
# Sequence (Q9NYK1 27-1049): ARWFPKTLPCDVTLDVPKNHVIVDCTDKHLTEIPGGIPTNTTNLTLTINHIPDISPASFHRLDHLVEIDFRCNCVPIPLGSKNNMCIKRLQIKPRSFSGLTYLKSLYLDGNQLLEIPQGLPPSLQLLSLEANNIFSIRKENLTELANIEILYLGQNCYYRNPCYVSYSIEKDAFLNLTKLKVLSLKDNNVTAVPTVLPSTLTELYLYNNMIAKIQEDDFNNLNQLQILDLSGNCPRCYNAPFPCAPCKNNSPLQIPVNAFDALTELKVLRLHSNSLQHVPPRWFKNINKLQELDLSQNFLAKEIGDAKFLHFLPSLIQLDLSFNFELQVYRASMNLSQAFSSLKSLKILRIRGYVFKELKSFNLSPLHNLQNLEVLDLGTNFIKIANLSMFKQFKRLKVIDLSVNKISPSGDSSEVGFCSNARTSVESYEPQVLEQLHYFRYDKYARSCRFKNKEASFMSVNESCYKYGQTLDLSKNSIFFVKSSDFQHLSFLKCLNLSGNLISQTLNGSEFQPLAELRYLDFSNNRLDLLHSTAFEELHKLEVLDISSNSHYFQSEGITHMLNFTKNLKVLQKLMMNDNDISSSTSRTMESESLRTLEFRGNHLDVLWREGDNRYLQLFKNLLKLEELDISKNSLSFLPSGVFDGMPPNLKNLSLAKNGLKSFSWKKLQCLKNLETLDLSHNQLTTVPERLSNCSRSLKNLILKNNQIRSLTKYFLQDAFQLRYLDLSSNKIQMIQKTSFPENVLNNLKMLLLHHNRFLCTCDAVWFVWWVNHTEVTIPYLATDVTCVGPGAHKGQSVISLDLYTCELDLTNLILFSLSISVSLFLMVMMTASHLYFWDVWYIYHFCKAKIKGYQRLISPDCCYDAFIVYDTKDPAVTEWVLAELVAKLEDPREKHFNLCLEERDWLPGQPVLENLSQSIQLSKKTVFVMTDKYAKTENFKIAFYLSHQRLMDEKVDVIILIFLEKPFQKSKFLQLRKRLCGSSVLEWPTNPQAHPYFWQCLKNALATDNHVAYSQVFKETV
# Experimental Details: TLR7/8/9 Inhibition Reporter Assays (TLR7)
# Conditions Used: HEK-Blue cells overexpressing human TLR7, SEAP reporter, stimulated with TLR7 ligand gardiquimod
# Procedure: HEK-Blue™-cells (Invivogen) overexpressing human TLR7, TLR8 or TLR9 receptors were used for screening inhibitors of these receptors using an inducible SEAP (secreted embryonic alkaline phosphatase) reporter gene under the control of the IFN-β minimal promoter fused to five NF-κB and AP-1-binding sites. […] The percent inhibition is determined as the % reduction in the HEK-Blue signal present in wells treated with agonist plus DMSO alone compared to wells treated with a known inhibitor.
Entries and their IC50
State just the number; it will be interpreted in µM.

// worked examples, IC50 included
INSERT INTO assay_data (smiles_record, experimental_value) VALUES
  ('Cc1nc(-c2ccc(N3CC4(C3)CN(C(C)C)C4)cc2)cc2c1nc(-c1ccc(S(C)(=O)=O)cc1)n2C', 7.8),
  ('Cc1nc(-c2ccc(N3CCC4(CC3)CN(CC(C)(C)O)C4)cc2)cc2c1nc(-c1ccc(S(C)(=O)=O)cc1)n2C', 5.5);

Now let's try a different one.
Find the measured IC50: item "Cc1nc(-c2ccc(N3CCC(N4CCCC4)CC3)cc2)c(F)c2c1nc(-c1ccc(S(C)(=O)=O)cc1)n2C" , target or system UniProtKB Q9NYK1. 7.8

* * *

# Subject Of Test: UniProtKB Q9NR97
# Sequence (Q9NR97 27-1041): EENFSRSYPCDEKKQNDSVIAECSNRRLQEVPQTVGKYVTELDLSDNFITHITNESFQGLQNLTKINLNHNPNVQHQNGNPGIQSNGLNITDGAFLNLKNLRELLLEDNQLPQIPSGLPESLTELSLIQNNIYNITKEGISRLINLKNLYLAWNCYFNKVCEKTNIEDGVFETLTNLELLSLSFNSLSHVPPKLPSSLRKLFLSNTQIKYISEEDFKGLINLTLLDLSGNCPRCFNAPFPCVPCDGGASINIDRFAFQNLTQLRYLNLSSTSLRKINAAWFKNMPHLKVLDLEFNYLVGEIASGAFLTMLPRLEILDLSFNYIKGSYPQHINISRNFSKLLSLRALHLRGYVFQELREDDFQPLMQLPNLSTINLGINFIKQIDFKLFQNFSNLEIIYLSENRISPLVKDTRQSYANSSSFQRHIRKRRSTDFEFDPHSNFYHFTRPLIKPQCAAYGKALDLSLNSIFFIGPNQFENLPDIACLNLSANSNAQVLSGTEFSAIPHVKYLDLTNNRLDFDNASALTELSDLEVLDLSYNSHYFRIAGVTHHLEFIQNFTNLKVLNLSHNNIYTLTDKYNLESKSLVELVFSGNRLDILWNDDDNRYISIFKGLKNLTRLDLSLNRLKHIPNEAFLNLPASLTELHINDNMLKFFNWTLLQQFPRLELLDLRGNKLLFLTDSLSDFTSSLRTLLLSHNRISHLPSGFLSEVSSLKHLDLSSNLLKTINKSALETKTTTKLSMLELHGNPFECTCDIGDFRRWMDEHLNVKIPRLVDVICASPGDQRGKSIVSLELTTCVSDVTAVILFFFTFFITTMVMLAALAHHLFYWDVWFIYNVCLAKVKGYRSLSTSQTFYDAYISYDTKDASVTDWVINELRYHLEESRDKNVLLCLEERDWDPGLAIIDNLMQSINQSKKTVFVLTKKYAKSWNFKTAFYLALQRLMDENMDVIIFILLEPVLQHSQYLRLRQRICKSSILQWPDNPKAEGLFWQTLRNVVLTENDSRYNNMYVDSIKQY
# Experimental Details: TLR7/8/9 Inhibition Reporter Assays (TLR8)
# Conditions Used: HEK-Blue cells overexpressing human TLR8, SEAP reporter, stimulated with TLR8 ligand R848
Entries and their IC50

// worked examples, IC50 included
INSERT INTO measurements (smiles_record, recorded_endpoint, experimental_value) VALUES
  ('Cc1nc(-c2ccc(N3CCN(C(C)C)CC3)cc2)cc2c1nc(-c1ccc(S(C)(=O)=O)cc1)n2C', 'IC50', '3 µM'),
  ('COc1ccc(-c2nc3c(C)nc(-c4ccc(N5C[C@H]6CN(CC(C)C)C[C@H]6C5)cc4)cc3n2C)cc1OC', 'IC50', '> 50 µM'),
  ('CC(C)N1CCC(N2CCC(c3cc4c(cn3)nc(-c3ccc(S(C)(=O)=O)cc3)n4C)CC2)CC1', 'IC50', '> 25 µM');

Find the measured IC50: item "Cn1c(-c2ccc(S(C)(=O)=O)cc2)nc2c(C(F)(F)F)nc(C3=CCN(C4CCN(CC(C)(C)O)CC4)CC3)cc21" , target or system UniProtKB Q9NR97. > 50 µM

What do you have for "Cc1nc(C2CCN(C3CCN(CC(C)(C)O)CC3)CC2)cc2c1nc(-c1ccc(S(C)(=O)=O)cc1)n2C" ? > 50 µM
